Data origin, for the record: patent US9341616B2

- assayed_system: hT1R2/hT1R3 (Homo sapiens, UniProt Q7RTX0+Q8TE23, C757R)
- Construct: expressed in transfected cells; host or cells: HEK293E
- Sequence (Q8TE23 20-839): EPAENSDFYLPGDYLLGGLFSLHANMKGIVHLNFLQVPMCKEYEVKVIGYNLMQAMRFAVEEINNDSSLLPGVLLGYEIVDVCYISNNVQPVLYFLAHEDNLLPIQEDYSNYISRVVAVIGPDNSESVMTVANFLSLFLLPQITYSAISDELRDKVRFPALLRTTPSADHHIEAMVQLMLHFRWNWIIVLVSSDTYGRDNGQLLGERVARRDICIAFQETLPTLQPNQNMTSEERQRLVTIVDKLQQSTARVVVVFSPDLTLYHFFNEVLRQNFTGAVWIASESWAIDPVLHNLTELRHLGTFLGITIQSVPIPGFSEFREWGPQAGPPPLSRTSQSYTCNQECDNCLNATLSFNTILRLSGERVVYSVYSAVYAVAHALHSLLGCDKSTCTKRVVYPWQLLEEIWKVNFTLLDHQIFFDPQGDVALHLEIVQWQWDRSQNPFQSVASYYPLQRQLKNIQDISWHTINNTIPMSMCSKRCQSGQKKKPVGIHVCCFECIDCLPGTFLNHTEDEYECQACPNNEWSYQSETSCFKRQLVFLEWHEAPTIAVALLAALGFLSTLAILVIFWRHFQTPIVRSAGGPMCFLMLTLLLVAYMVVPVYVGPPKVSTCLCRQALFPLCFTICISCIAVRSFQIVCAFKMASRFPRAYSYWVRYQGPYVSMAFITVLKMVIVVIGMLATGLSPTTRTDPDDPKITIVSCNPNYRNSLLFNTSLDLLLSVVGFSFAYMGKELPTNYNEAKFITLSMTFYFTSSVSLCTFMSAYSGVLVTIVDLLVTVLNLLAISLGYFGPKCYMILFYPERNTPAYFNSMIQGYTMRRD
- Sequence (Q7RTX0 21-852 C757R): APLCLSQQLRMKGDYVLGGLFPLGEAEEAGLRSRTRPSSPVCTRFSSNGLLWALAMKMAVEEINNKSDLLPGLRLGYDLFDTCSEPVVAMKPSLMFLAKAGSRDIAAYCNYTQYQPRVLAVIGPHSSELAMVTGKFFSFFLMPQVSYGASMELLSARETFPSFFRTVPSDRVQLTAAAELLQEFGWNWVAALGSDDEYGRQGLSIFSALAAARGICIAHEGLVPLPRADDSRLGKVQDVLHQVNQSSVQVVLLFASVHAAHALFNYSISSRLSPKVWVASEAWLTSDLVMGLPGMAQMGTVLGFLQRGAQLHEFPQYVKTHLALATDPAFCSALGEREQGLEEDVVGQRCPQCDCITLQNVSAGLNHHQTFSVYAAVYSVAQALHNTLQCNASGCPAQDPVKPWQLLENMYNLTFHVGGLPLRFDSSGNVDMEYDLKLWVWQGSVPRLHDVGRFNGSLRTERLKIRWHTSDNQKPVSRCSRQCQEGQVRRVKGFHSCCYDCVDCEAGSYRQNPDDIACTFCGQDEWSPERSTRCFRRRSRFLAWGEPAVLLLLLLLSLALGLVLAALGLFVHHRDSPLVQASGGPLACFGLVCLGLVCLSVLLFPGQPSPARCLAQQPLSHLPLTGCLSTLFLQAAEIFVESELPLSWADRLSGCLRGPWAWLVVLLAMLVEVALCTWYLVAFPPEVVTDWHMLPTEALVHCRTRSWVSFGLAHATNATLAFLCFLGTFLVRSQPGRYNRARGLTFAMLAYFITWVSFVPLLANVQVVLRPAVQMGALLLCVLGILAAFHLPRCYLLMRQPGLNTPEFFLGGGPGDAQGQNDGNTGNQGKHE
- experimental_details: Intracellular calcium assay (ΔF/F, S/N ratio) in HEK293E cells expressing hT1R2 and hT1R3 with Gα15-trans48LD;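 further: fluorescence read over 120 s after adding sweet stimulant across several concentrations, S/N taken as highest over lowest ΔF/F, higher meaning more sensitive detection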
- Format: cell-based
- measurement_setup: Table 5, genes hT2/hT3 (hT1R2, hT1R3)
Residues, ends and D or L forms follow the SMILES beside them.
// reported S/N for each item listed
quantity_measured: S/N

compound	observed_measurement
CC1=CC(=O)NS(=O)(=O)O1	1.9
O=C1NS(=O)(=O)c2ccccc21.[Na] [Saccharin Na, sodium saccharin]	2.5
COC(=O)[C@H](Cc1ccccc1)NC(=O)[C@H](CC(=O)O)NCCCc1ccc(OC)c(O)c1	3.2
C[C@H](NC(=Nc1ccc(C#N)cc1)NCC(=O)O)c1ccccc1	3.0
COc1ccc(CCC(=O)c2c(O)cc(O[C@@H]3O[C@H](CO)[C@@H](O)[C@H](O)[C@H]3O[C@@H]3O[C@@H](C)[C@H](O)[C@@H](O)[C@H]3O)cc2O)cc1O [NHDC, neohesperidin dihydrochalcone]	2.0
OC[C@H]1O[C@@](CO)(O[C@H]2O[C@H](CO)[C@@H](O)[C@H](O)[C@H]2O)[C@@H](O)[C@@H]1O	1.9
OC[C@H]1O[C@H](O[C@]2(CCl)O[C@H](CCl)[C@@H](O)[C@@H]2O)[C@H](O)[C@@H](O)[C@H]1Cl	3.3
COC(=O)[C@H](Cc1ccccc1)NC(=O)[C@H](CC(=O)O)NCCC(C)(C)C	2.9
COC(=O)[C@H](Cc1ccccc1)NC(=O)[C@@H](N)CC(=O)O [Aspartame, aspartame] (HELM PEPTIDE1{D.F.[CO[*:1]]}$$$$V2.0)	1.6

---

- assayed_system: h-mT1R2-481/T1R3mosaicA (UniProt Q8TE23+Q925D8, A12W/A31M/A537S/A558R/A564V/A568V/A570T/A588V/A645S/A649T/A658V/A698V/A702T/A782V/A793V/A807V/C582S/C678S/E16H/E530V/E534N/E542M/E548N/E725V/F14L/F29L/F525Y/F541I/F612A/F622V/F665L/F695L/G696N/G701T/H484Y/H528R/H728R/I36V/I481V/I486P/I490V/I510L/I518V/I595M/I60P/I617V/I643V/I645L/I692L/I695G/I706V/I740A/I803L/K30R/K504M/K555R/K565R/K626T/K714N/K818R/K827G/L17P/L521P/L560F/L571I/L578I/L610P/L631F/L636F/L639V/L684P/L688V/L702I/L734M/L735F/L800F/L823M/L825Q/M19T/M492I/M616G/M644L/M682V/M690V/M744T/M748V/N52R/N540G/N541S/N547G/N58S/N63T/N675D/N721H/P545F/P561R/P564S/P61V/P638T/P824S/Q32K/Q536L/Q53S/Q546K/Q550E/Q555R/Q56R/Q611L/Q676H/Q757R/Q795R/Q831P/R498S/R632Q/R667S/S22P/S45E/S501P/S547N/S550A/S576L/S595F/S610P/S628F/S635P/S637R/S663R/S670G/S679G/S681F/S703N/S717H/S727G/S784D/S804G/T46A/T50G/T529S/T542A/T549I/T609V/T629S/T642S/T663I/T694M/T705I/T706G/T716I/T813A/V508I/V512P/V557A/V573A/V584A/V585L/V613L/V617M/V673M/V687A/V691A/V694A/V718L/V718M/V723A/V729T/V738A/V741L/V774I/V791M/V805L/V812A/V821L/W599R/W676R/W824R/Y533F/Y615F/Y671F/Y680C/Y769S/Y783H/Y794L)
- Sequence (Q8TE23 with tags, fused parts or gaps with the stated changes limits assumed): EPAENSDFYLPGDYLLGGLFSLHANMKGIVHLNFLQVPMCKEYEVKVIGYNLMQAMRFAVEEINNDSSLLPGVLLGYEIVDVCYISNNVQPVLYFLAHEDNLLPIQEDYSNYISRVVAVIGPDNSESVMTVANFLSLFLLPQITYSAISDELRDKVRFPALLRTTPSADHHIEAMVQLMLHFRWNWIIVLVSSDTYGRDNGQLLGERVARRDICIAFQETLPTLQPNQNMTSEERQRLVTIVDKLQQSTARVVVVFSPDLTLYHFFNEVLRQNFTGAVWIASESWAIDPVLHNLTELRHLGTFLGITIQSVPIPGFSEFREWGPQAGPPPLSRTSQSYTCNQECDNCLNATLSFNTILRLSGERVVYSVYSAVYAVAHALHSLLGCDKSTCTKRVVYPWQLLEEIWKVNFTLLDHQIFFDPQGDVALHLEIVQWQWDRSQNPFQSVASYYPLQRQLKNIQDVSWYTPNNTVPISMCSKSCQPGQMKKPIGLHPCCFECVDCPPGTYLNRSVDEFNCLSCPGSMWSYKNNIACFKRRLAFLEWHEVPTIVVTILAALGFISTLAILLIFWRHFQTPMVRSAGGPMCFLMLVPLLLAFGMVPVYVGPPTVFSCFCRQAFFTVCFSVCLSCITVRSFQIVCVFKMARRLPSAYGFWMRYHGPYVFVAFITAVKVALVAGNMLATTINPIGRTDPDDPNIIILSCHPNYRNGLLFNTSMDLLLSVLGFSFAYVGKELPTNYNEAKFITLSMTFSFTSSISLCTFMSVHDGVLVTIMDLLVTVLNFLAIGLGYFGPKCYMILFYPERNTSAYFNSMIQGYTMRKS
- Sequence (Q925D8 with tags, fused parts or gaps with the stated changes limits assumed): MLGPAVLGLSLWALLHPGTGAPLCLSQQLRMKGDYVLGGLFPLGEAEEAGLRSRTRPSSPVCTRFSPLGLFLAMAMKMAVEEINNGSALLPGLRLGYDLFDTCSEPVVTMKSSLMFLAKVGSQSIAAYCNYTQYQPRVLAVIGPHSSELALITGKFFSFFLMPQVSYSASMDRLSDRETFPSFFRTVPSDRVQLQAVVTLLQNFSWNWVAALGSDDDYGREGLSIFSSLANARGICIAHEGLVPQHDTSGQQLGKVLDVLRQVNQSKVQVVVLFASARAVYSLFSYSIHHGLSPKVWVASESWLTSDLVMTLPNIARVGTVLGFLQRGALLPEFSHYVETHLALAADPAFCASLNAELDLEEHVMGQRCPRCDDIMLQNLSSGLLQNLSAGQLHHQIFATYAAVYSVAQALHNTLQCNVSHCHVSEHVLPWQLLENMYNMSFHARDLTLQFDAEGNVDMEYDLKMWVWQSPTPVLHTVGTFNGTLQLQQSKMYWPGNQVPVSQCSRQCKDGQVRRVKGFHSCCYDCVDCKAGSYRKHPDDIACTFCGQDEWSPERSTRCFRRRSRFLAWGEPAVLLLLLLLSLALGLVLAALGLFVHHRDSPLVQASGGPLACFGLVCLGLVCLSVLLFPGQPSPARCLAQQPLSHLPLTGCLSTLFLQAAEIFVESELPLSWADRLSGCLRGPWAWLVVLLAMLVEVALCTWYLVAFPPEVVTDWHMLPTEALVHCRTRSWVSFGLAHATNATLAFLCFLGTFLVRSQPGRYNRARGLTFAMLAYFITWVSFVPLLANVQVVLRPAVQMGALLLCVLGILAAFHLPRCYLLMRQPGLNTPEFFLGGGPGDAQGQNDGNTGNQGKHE
- measurement_setup: Table 3; genes h-mT481/T3mA (h-mT1R2-481, T1R3mA); HEK293E cells
Residues, ends and D or L forms follow the SMILES beside them.
hey, just use MET if measured S/N is less than 6, otherwise NOT MET

In [3]: df
Out[3]:
                                   molecule  assigned_category
0  COC(=O)[C@H](Cc1ccccc1)NC(=O)[C@H](CC(=O)O)NCCC(C)(C)C            NOT MET
1  OC[C@H]1O[C@@](CO)(O[C@H]2O[C@H](CO)[C@@H](O)[C@H](O)[C@H]2O)[C@@H](O)[C@@H]1O                MET
2  O=C1NS(=O)(=O)c2ccccc21.[Na] [Saccharin Na, sodium saccharin]                MET
3  COC(=O)[C@H](Cc1ccccc1)NC(=O)[C@@H](N)CC(=O)O [Aspartame, aspartame] (HELM PEPTIDE1{D.F.[CO[*:1]]}$$$$V2.0)            NOT MET
4                    CC1=CC(=O)NS(=O)(=O)O1                MET
5  OC[C@H]1O[C@H](O[C@]2(CCl)O[C@H](CCl)[C@@H](O)[C@@H]2O)[C@H](O)[C@@H](O)[C@H]1Cl            NOT MET
6  COC(=O)[C@H](Cc1ccccc1)NC(=O)[C@H](CC(=O)O)NCCCc1ccc(OC)c(O)c1            NOT MET
7  C[C@H](NC(=Nc1ccc(C#N)cc1)NCC(=O)O)c1ccccc1            NOT MET

---

- assayed_system: h-mT1R2-481/T1R3mosaicA (UniProt Q8TE23+Q925D8, A12W/A31M/A537S/A558R/A564V/A568V/A570T/A588V/A645S/A649T/A658V/A698V/A702T/A782V/A793V/A807V/C582S/C678S/E16H/E530V/E534N/E542M/E548N/E725V/F14L/F29L/F525Y/F541I/F612A/F622V/F665L/F695L/G696N/G701T/H484Y/H528R/H728R/I36V/I481V/I486P/I490V/I510L/I518V/I595M/I60P/I617V/I643V/I645L/I692L/I695G/I706V/I740A/I803L/K30R/K504M/K555R/K565R/K626T/K714N/K818R/K827G/L17P/L521P/L560F/L571I/L578I/L610P/L631F/L636F/L639V/L684P/L688V/L702I/L734M/L735F/L800F/L823M/L825Q/M19T/M492I/M616G/M644L/M682V/M690V/M744T/M748V/N52R/N540G/N541S/N547G/N58S/N63T/N675D/N721H/P545F/P561R/P564S/P61V/P638T/P824S/Q32K/Q536L/Q53S/Q546K/Q550E/Q555R/Q56R/Q611L/Q676H/Q757R/Q795R/Q831P/R498S/R632Q/R667S/S22P/S45E/S501P/S547N/S550A/S576L/S595F/S610P/S628F/S635P/S637R/S663R/S670G/S679G/S681F/S703N/S717H/S727G/S784D/S804G/T46A/T50G/T529S/T542A/T549I/T609V/T629S/T642S/T663I/T694M/T705I/T706G/T716I/T813A/V508I/V512P/V557A/V573A/V584A/V585L/V613L/V617M/V673M/V687A/V691A/V694A/V718L/V718M/V723A/V729T/V738A/V741L/V774I/V791M/V805L/V812A/V821L/W599R/W676R/W824R/Y533F/Y615F/Y671F/Y680C/Y769S/Y783H/Y794L)
- measurement_setup: Table 4; genes h-mT481/T3mA (h-mT1R2-481, T1R3mA); HEK293E cells
// reported S/N for each item listed
quantity_measured: S/N

In [3]: df
Out[3]:
                                   compound  quantity_measured  observed_measurement
0  CC1=CC(=O)NS(=O)(=O)O1 [Acesulfame K, acesulfame potassium]                S/N                   5.4
1  COC(=O)[C@H](Cc1ccccc1)NC(=O)[C@H](CC(=O)O)NCCC(C)(C)C [Neotame, neotame]                S/N                   9.4
2  OC[C@H]1O[C@H](O[C@]2(CCl)O[C@H](CCl)[C@@H](O)[C@@H]2O)[C@H](O)[C@@H](O)[C@H]1Cl [Sucralose, sucralose]                S/N                   9.0
3  C[C@H](NC(=Nc1ccc(C#N)cc1)NCC(=O)O)c1ccccc1 [SC-45647]                S/N                   7.9
